- Measured on: MEK1 activated ERK1 (Homo sapiens)
- Construct: purchased Millipore (Billerica, Mass.) 14-439-K
- Sequence (P27361 whole entry): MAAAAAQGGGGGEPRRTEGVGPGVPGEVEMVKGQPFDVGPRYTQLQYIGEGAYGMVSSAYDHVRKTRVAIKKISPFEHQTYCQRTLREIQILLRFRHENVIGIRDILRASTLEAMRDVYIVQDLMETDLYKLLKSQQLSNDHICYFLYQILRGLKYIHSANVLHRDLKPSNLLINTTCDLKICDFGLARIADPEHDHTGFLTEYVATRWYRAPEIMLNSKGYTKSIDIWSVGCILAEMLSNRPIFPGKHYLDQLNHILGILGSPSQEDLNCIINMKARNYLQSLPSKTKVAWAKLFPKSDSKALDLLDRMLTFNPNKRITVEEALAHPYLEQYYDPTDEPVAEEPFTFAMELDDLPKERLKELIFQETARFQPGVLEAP
- Procedure summary: Omnia continuous-read kinase assay for potency against MEK1 activated ERK1
- Type: biochemical
- Assay context: ATP at KM, WT
List of IC50 values.

| Smiles entry | IC50 |
| --- | --- |
| C=CC(=O)Nc1cc(CN2CCN(C(=O)c3ccccn3)CC2)ccc1Nc1nc(Nc2cc(OC)ncc2C)ncc1C(F)(F)F | 101 to 500 nM |
| C=CC(=O)Nc1cc(C)ccc1Nc1nc(Nc2cc(C(N)=O)nn2C)ncc1C(F)(F)F | > 1000 nM |
| C=CC(=O)Nc1cc(C)ccc1Nc1nc(Nc2nc(OC)ncc2OC)ncc1C(F)(F)F | 101 to 500 nM |
| C=CC(=O)Nc1cc(CN2CCN(C(=O)c3cnccn3)CC2)ccc1Nc1nc(Nc2cc(OC)ncc2C)ncc1C(F)(F)F | < 100 nM |
| C=CC(=O)Nc1cc(CN2CCN(C(C)=O)CC2)ccc1Nc1nc(Nc2cc(OC)ncc2C)ncc1C(F)(F)F | < 100 nM |
| C=CC(=O)Nc1cc(CN2CCN(C)CC2)ccc1Nc1nc(Nc2nc(OC)ncc2C)ncc1C(F)(F)F | 101 to 500 nM |

Request: Give the value of IC50 reported for the following: C=CC(=O)Nc1cc(CN2CCN(C(=O)c3cnccn3)CC2)ccc1Nc1nc(Nc2nc(OC)ncc2C)ncc1C(F)(F)F
Response: 501 to 999 nM

Request: Assign IC50 to the following record: C=CC(=O)Nc1cc(OCC(N)=O)ccc1Nc1nc(NC2CCOCC2)ncc1C(F)(F)F
Response: 101 to 500 nM

Request: State its IC50 for this compound: C=CC(=O)Nc1cc(C)ccc1Nc1nc(Nc2nc(OC)ncc2F)ncc1C(F)(F)F
Response: 101 to 500 nM

Request: Write down IC50 measured for item C=CC(=O)Nc1cc(CCC(N)=O)ccc1Nc1nc(Nc2cc(OC)ncc2C)ncc1C(F)(F)F
Response: < 100 nM

Request: Look up and report measured IC50 for this entry: C=CC(=O)Nc1cc(C)ccc1Nc1nc(NCC2COC2)ncc1C(F)(F)F
Response: > 1000 nM

Request: For C=CC(=O)Nc1cc(CCc2cnn(C)c2)ccc1Nc1nc(Nc2cc(OC)ncc2C)ncc1C(F)(F)F , write its IC50.
Response: 101 to 500 nM

Request: Assign IC50 to the following record: C=CC(=O)Nc1cc(CN2CCN(C(C)=O)C[C@H]2C)ccc1Nc1nc(Nc2cc(OC)ncc2C)ncc1C(F)(F)F
Response: < 100 nM

Request: Input C=CC(=O)Nc1cc(O[C@@H](C)C(N)=O)ccc1Nc1nc(Nc2cc(OC)ncc2C)ncc1C(F)(F)F , output reported IC50.
Response: < 100 nM

Request: Provide only the value of recorded IC50 for C=CC(=O)Nc1cc(C)c(F)cc1Nc1nc(Nc2cc(OC)ncc2C)ncc1C(F)(F)F
Response: > 1000 nM

----------
Reported IC50 values are given for each entry in this list.
- Measured on: MEK1 activated ERK1 (Homo sapiens)
- Construct: purchased Millipore (Billerica, Mass.) 14-439-K
- Procedure summary: Omnia continuous-read kinase assay for potency against MEK1 activated ERK1
- Assay type: biochemical
- Assay context: MEK1 activated ERK1, ATP at KM; read-out: ERK1 Omnia WT ATP KM IC50

Completed entries (count: 2):
| Compound | Measured on | Result |
| --- | --- | --- |
| C=CC(=O)Nc1ccccc1Nc1nc(NC2CCCCC2)ncc1Cl [Compound I-107] | MEK1 activated ERK1 (Homo sapiens) | 101 to 500 nM |
| C=CC(=O)Nc1ccccc1Nc1nc(N[C@H]2CCN(C(=O)OC)C2)ncc1C(F)(F)F [Compound I-59] | MEK1 activated ERK1 (Homo sapiens) | 501 to 999 nM |

Request: // fetch IC50 given entry C=CC(=O)Nc1ccccc1Nc1nc(Nc2cc(C(=O)NOC)ccc2OC)ncc1Cl [Compound I-187]
Response: 101 to 500 nM

Request: Tell me IC50 reported for C=CC(=O)Nc1cc(C)ccc1Nc1nc(Nc2cc(C(C)=O)ccc2C)ncc1Cl [Compound I-239]
Response: 101 to 500 nM

Request: Answer with the recorded IC50 of C=C(C)S(=O)(=O)Nc1cc(F)ccc1Nc1nc(Nc2cc(C(C)=O)ccc2C)ncc1Cl [Compound I-243] only.
Response: > 1000 nM

Request: In one line, give reported IC50 of the entry C=CC(=O)Nc1cc(F)ccc1Nc1nc(Nc2ccc(F)cc2OC)ncc1Cl [Compound I-213] .
Response: 101 to 500 nM

Request: Respond only with IC50 recorded for C=CC(=O)Nc1cc(C)ccc1Nc1nc(Nc2cc(NCCOC)nc(OC)c2)ncc1C(F)(F)F [Compound I-294]
Response: 101 to 500 nM

Request: Look up and report measured IC50 for this entry: C=CC(=O)Nc1ccccc1Nc1nc(Nc2cc(OC)nc(N3CCN(C(C)=O)CC3)c2)ncc1C(F)(F)F [Compound I-92]
Response: < 100 nM

----------
- System: HT-29 cells (colorectal adenocarcinoma)
- Procedure summary: Inhibition of cancer cell proliferation, HT-29 (CellTiterGlo, 72 hours)
- Type: cell-based
- Assay context: Homo sapiens
List of GI50 values.

Consider the following illustrative entries.
| Smiles entry | Measure | Result |
| --- | --- | --- |
| C=CC(=O)Nc1ccccc1Nc1nc(Nc2ccc(NC(=O)COC(C)=O)cc2OC)ncc1Cl | GI50 | > 1000 nM |
| C=CC(=O)Nc1ccccc1Nc1nc(N[C@H]2CCN(C(C)=O)C2)ncc1C(F)(F)F | GI50 | 101 to 500 nM |
| C=CC(=O)Nc1ccccc1Nc1nc(N[C@H]2CCCN(C(=O)CO)C2)ncc1Cl | GI50 | < 100 nM |
| C=CC(=O)Nc1ccccc1Nc1nc(N[C@@H]2CCC[C@H](C(N)=O)C2)ncc1Cl | GI50 | 101 to 500 nM |
| C=CC(=O)Nc1ccccc1Nc1nc(N[C@H]2CCCNC2)ncc1Cl | GI50 | 501 to 999 nM |

Request: State its GI50 for this compound: C=CC(=O)Nc1ccccc1Nc1nc(Nc2ccc(N(CCCN)C(C)=O)cc2OC)ncc1Cl
Response: > 1000 nM

Request: Report measured GI50; entry is C=CC(=O)Nc1ccccc1Nc1nc(Nc2cc(OC)nc(N3CCCCC3)c2)ncc1C(F)(F)F
Response: < 100 nM

Request: Look up GI50 of C=CC(=O)Nc1cc(C(F)(F)F)ccc1Nc1nc(Nc2cc(OC)ncc2C)ncc1C(F)(F)F and report it.
Response: 101 to 500 nM

----------
- Test system: ERK1/2 phosphorylation of p90RSK in HCT116 cells
- Procedure summary: Detection of total and phospho-RSK by MSD ELISA (HCT116)
- Type: cell-based
- Assay context: Homo sapiens, HCT-116, read-out: ERK1/ERK2 PRSK HCT116 EC50
- Description: Detection of Total and Phospho-RSK by MSD ELISA (HCT116) The protocol below describes an assay to measure the kinase activity of ERK1/2 to phosphorylate a substrate, p90RSK, in the presence or absence of a test compound. HCT116 cells were grown in RPMI/10% FBS. […] The plate was incubated for 1 hr at room temperature on a shaker, followed by three washes. […] Next, 150 uL/well 1×MSD Read buffer was added and the plate was analyzed by the MSD reader.
pEC50: −log10 of the molar value.
Measure: pEC50

Use these answered entries as a reference point.
| Smiles entry | Result |
| --- | --- |
| C=CC(=O)Nc1cc(C)ccc1Nc1nc(Nc2nc(OC)ncc2C(F)(F)F)ncc1C(F)(F)F | 6.30 to 7.00 |
| C=CC(=O)Nc1cc(C)ccc1Nc1nc(Nc2cc(-c3nc[nH]n3)ccc2C)ncc1C(F)(F)F | 6.00 to 6.30 |
| C=CC(=O)Nc1cc(C)ccc1Nc1nc(Nc2cc(OC)nc(N(C)C3CC3)c2)ncc1C(F)(F)F | 6.30 to 7.00 |

Shifting focus to the compound that follows.
Request: Assign pEC50 to the following record: C=CC(=O)Nc1cc(C)ccc1Nc1nc(Nc2cc(OC)ncn2)ncc1C(F)(F)F
Response: 6.00 to 6.30

----------
- Tested on: A375 cells (malignant melanoma)
- Procedure summary: Inhibition of cancer cell proliferation, A375 (CellTiterGlo, 72 hours)
- Type: cell-based
- Assay context: Homo sapiens, A-375
Attribute: GI50

Below are worked cases with known answers.
| Smiles entry | GI50 |
| --- | --- |
| C=CC(=O)Nc1cc(C)ccc1Nc1nc(Nc2cc(OC)ncc2C)ncc1C(F)(F)F | 101 to 500 nM |
| C=CC(=O)Nc1cc(OCC(N)=O)ccc1Nc1nc(Nc2cc(OC)ncc2C)ncc1C(F)(F)F | < 100 nM |
| C=CC(=O)Nc1cc(C)ccc1Nc1nc(Nc2cc(OC)nc(N(C)C3CC3)c2)ncc1C(F)(F)F | 101 to 500 nM |
| C=CC(=O)Nc1cc(C)ccc1Nc1nc(Nc2cc(C(N)=O)ccn2)ncc1Cl | 101 to 500 nM |
| C=CC(=O)Nc1cc(C)ccc1Nc1nc(Nc2nc(O)ncc2C)ncc1C(F)(F)F | < 100 nM |
| C=CC(=O)Nc1cc(C)ccc1Nc1nc(Nc2cc(OC)nc(N3CCN(C)CC3)c2)ncc1C(F)(F)F | < 100 nM |
| CCC(=O)Nc1ccccc1Nc1nc(N[C@H]2CCCN(C(C)=O)C2)ncc1C(F)(F)F | < 100 nM |

Request: State its GI50 for this compound: C=CC(=O)Nc1cc(C)ccc1Nc1nc(Nc2cc(C(C)=O)ccc2C)ncc1Cl
Response: 101 to 500 nM

Source: patent US9561228B2
